Target sequence: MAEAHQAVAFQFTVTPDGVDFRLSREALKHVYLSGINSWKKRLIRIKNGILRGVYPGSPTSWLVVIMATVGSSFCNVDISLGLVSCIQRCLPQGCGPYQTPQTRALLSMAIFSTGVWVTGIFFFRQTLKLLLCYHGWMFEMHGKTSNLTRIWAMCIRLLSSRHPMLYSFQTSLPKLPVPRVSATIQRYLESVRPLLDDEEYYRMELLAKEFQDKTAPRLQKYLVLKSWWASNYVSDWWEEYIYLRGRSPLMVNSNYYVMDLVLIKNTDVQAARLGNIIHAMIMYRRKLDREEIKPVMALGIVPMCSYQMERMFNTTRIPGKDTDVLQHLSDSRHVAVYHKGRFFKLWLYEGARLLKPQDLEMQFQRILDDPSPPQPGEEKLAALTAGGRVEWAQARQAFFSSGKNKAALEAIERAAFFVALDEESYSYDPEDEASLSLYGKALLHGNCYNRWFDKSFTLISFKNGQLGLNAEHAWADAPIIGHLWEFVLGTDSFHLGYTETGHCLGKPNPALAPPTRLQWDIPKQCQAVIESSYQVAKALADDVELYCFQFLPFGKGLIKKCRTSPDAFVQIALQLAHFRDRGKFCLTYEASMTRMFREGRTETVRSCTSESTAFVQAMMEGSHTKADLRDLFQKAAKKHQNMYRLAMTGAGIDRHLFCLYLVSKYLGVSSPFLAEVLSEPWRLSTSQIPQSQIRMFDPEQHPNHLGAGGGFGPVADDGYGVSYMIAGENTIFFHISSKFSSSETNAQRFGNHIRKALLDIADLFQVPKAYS
MEASUREMENT LABEL: pIC50
Units for pIC50: none; it is -log10 of a concentration expressed in mol/L.

query: Which measured pIC50 value corresponds to `CC(C)(COP(=O)(O)OP(=O)(O)OC[C@H]1O[C@@H](n2cnc3c(N)ncnc32)[C@H](O)[C@@H]1OP(=O)(O)O)[C@@H](O)C(=O)NCCC(=O)NCCSC(=O)CC(=O)O` ?
result: 7.39
